testTarget: KIT (Homo sapiens)
Construct: made in house
Sequence (P10721 26-976): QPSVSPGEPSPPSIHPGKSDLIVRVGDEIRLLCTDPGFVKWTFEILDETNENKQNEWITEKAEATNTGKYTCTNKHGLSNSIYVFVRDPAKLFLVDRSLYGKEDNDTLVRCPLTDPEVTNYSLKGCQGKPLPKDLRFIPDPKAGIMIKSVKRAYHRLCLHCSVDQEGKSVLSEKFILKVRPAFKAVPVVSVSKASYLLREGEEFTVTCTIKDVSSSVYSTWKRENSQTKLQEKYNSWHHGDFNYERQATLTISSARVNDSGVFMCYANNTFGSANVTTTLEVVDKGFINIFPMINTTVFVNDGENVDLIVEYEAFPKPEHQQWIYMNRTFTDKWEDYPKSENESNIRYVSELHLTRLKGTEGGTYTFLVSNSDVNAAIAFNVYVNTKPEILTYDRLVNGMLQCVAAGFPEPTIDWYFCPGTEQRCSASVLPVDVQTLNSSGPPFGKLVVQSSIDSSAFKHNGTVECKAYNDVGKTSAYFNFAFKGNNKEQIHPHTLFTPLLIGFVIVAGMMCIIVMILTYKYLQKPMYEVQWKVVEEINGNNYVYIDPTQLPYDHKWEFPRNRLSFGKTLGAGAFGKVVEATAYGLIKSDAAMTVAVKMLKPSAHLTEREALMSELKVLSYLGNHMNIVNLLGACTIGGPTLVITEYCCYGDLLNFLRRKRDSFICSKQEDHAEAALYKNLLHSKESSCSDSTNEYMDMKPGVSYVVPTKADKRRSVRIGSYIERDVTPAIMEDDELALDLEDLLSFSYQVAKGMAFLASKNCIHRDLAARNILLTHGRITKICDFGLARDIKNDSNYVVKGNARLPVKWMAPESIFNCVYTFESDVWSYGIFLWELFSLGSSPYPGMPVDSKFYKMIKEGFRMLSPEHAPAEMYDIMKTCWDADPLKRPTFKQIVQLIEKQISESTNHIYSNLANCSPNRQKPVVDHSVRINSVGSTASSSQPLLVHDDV
testMethodNotes: Competition binding assay, KIT Kd
conditionContext: competition binding
endpoint: Kd

Example entries and their recorded answers appear below.
[
  {
    "chemSmiles": "O[C@@H]1CCCC[C@H]1Nc1nc2ccc(Cc3cnc4cccc(F)n34)cc2s1",
    "Kd": "100 to 500 nM"
  },
  {
    "chemSmiles": "O[C@@H]1CCCC[C@H]1Nc1nc2ccc(Cc3cnc4cccnn34)cc2s1",
    "Kd": "≤ 100 nM"
  },
  {
    "chemSmiles": "O[C@H]1CCCC[C@H]1Nc1nc2ccc(Cn3cnc4cc(F)cnc43)cc2s1",
    "Kd": "100 to 500 nM"
  },
  {
    "chemSmiles": "O[C@@H]1CCCC[C@H]1Nc1nc2ccc(Cc3cnc4ccc(-n5cccn5)cn34)cc2s1",
    "Kd": "500 to 2000 nM"
  }
]

# evaluate next
Input O[C@@H]1[C@H](O)CCC[C@H]1Nc1nc2ccc(Cn3cnc4cc(OC5COC5)ccc43)cc2s1 . Output Kd: ≤ 100 nM
